Recorded Emax at 10 min, 10 µM, one value per entry.
- measured.target: ABCB1 (Homo sapiens, UniProt P08183)
- Sequence (P08183 whole entry): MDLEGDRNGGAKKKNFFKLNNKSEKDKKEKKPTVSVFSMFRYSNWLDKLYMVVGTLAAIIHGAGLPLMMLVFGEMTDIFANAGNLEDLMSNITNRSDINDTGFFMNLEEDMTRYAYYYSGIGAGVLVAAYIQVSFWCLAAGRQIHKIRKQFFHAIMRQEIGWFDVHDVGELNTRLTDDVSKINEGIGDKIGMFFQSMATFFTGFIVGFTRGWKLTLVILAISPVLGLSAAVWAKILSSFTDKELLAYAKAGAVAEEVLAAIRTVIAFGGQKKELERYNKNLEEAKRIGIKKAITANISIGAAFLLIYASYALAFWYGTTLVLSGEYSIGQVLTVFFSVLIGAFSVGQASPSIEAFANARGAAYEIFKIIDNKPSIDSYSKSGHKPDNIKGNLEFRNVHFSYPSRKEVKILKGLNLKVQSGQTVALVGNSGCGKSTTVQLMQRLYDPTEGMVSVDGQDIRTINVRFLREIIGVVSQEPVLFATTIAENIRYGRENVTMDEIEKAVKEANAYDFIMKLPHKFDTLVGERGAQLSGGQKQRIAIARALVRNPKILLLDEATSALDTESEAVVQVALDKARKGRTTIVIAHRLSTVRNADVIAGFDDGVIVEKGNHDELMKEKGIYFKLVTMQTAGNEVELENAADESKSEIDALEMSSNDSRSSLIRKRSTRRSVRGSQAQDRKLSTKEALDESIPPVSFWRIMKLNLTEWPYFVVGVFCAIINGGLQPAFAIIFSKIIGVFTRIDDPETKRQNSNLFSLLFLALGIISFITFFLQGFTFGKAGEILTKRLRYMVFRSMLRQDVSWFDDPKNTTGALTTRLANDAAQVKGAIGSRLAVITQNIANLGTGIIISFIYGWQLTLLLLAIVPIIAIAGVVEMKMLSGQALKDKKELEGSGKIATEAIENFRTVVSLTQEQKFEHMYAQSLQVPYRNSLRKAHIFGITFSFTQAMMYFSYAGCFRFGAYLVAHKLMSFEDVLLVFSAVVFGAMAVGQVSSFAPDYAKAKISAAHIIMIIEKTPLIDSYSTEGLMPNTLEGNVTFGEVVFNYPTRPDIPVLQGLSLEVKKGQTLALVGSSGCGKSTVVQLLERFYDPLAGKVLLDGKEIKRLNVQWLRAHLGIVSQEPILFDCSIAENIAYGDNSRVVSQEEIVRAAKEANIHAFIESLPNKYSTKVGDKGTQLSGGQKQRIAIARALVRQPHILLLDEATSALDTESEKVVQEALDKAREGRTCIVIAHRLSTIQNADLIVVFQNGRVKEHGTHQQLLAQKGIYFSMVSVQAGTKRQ
- protocol.notes: Inhibition of ABCB1 in human KB-V1 cells assessed as accumulation of substrate calcein-AM stain at 10 uM measured after 10 mins by fluorometric microplate reader assay relative to Tariquidar
- Format: cell-based
- condition.context: probe calcein-AM, read-out: Imax

In the examples that follow, each entry is paired with its recorded Emax at 10 min, 10 µM.
CCC(=O)c1ccc(-c2cn(-c3ccc(CCN4CCc5cc(OC)c(OC)cc5C4)cc3)nn2)cc1NC(=O)c1cccc(O)n1: > 14%
CCC(=O)c1ccc(-c2cn(-c3ccc(CCN4CCc5cc(OC)c(OC)cc5C4)cc3)nn2)cc1NC(=O)c1cccc(C)n1: > 19%
Cc1ccc(-c2cn(CCN3CCOCC3)nn2)c(NC(=O)c2cc(=O)c3ccccc3o2)c1: > 13%
CCC(=O)c1ccc(-c2cn(CCO)nn2)cc1NC(=O)c1cc(=O)c2ccccc2o1: > 41%
CCC(=O)c1ccc(-c2cn(-c3ccc(CCN4CCc5cc(OC)c(OC)cc5C4)cc3)nn2)cc1NC(=O)c1ccc(OC)cn1: > 13%

We next turn to a different molecule, shown below.
Incoming: Specify Emax at 10 min, 10 µM for `CCC(=O)c1ccc(-c2cn(CCN3CCOCC3)nn2)cc1NC(=O)c1cc(=O)c2ccccc2o1` and stop.
Outgoing: 92%

###

- protocol.notes: Kinetic solubility of compound in PBS at pH 7.4 measured after 2 hrs by turbidimetric measurement
- condition.context: read-out: Kinetic_solubility
Recorded solubility kinetic at 2 h, one value per entry.
Write down the numeric answer in µM and omit the unit.

In the examples that follow, each entry is paired with its recorded solubility kinetic at 2 h.
CCC(=O)c1ccc(-c2cn(-c3ccc(CCN4CCc5cc(OC)c(OC)cc5C4)cc3)nn2)cc1NC(=O)c1cccc(O)n1: 7
CCC(=O)c1ccc(-c2cn(-c3ccc(CCN4CCc5cc(OC)c(OC)cc5C4)cc3)nn2)cc1NC(=O)c1ccc2ccccc2n1: 3
CCC(=O)c1ccc(-c2cn(-c3ccc(CCN4CCc5cc(OC)c(OC)cc5C4)cc3)nn2)cc1NC(=O)c1ccc2ccccc2c1: 3

We next turn to a different molecule, shown below.
Incoming: Specify solubility kinetic at 2 h for `CCC(=O)c1ccc(-c2cn(CCO)nn2)cc1NC(=O)c1cc(=O)c2ccccc2o1` and stop.
Outgoing: 3

###

- measured.target: ATP-dependent translocase ABCB1 (Homo sapiens)
- Sequence (P08183 whole entry): as above
- protocol.notes: Inhibition of ABCB1 in human KB-V1 cells assessed as accumulation of substrate calcein-AM stain measured after 10 mins by fluorometric microplate reader assay
- Assay type: cell-based
- condition.context: read-out: IC50
pIC50: −log10 of the molar value.
readout.name: pIC50

CCC(=O)c1ccc(-c2cn(-c3ccc(CCN4CCc5cc(OC)c(OC)cc5C4)cc3)nn2)cc1NC(=O)c1cccc(C)n1: < 5.00
CCC(=O)c1ccc(-c2cn(-c3ccc(CCN4CCc5cc(OC)c(OC)cc5C4)cc3)nn2)cc1NC(=O)c1cccc(O)n1: < 4.73
CCC(=O)c1ccc(-c2cn(-c3ccc(CCN4CCc5cc(OC)c(OC)cc5C4)cc3)nn2)cc1NC(=O)c1ccc(OC)cn1: < 5.56
CCC(=O)c1ccc(-c2cn(CCN3CCOCC3)nn2)cc1NC(=O)c1cc(=O)c2ccccc2o1: 5.87
CCC(=O)c1ccc(-c2cn(CCO)nn2)cc1NC(=O)c1cc(=O)c2ccccc2o1: < 5.64

We next turn to a different molecule, shown below.
Incoming: Specify pIC50 for `Cc1ccc(-c2cn(CCN3CCOCC3)nn2)c(NC(=O)c2cc(=O)c3ccccc3o2)c1` and stop.
Outgoing: < 5.80

Where do the numbers come from? From ChEMBL document CHEMBL4732100.
